# Test system: EKVX NSCLC
# experimental-protocol: NCI-60 one-dose screen, 48 h (100 = growth as untreated, 0 = no growth, -100 = all killed)
# condition: 10 µM unless noted
This is part of a sample that, as a whole, favours compounds with a hit. Of some 83,000 tested, about 20% had one in any assay.
I would appreciate it if you labelled entries Criterion met when growth is 80% or higher, otherwise Criterion not met.

Examples with answers:
compound	answer-label
C=C(C)[C@@H]1CC[C@]2(C(=O)NCC(=O)O)CC[C@]3(C)[C@H](CC[C@@H]4[C@@]5(C)Cc6c([nH]c7ccccc67)C(C)(C)[C@@H]5CC[C@]43C)[C@@H]12	Criterion met
Cc1ccc(Nc2ccc(Nc3ccc(C)cc3S(=O)(=O)O)c3c2C(=O)c2ccccc2C3=O)c(S(=O)(=O)O)c1	Criterion met
O=C(O)c1ccc(CO)o1	Criterion met
Cc1nc2ccc(C(=O)NCc3cc(C(=O)O)c(C)o3)cc2nc1C	Criterion met
COc1ccc(Oc2nc(Nc3ccc(N4CCOCC4)nc3)ncc2NC(=O)c2cc(OC)cc(OC)c2)cc1	Criterion met

Textbook exercise: given the entry CN(C)c1cnccn1 , state whether its growth is greater than or equal to 80%.
Criterion met

Is the recorded value of growth equal to or greater than 80% for this compound? O=C1Nc2ccccc2/C1=N/N=C/c1c[nH]c2ccccc12
Criterion not met

// inclusive: growth at least 80%? input: O=C(Nc1ccccn1)[C@H](O)[C@@H](O)C(=O)N1CCOCC1
Criterion met

Is growth at least 80%? Consider CCOc1cc(C2C(Cl)C(=O)N2n2cnnc2)ccc1O (stereo not given)
Criterion met

Form field: growth at least 80%? Entry: C[C@@H]1C(=O)N(C[C@H](Cc2ccccc2)NC(=O)OCc2ccccc2)[C@]1(Cc1ccccc1)C(=O)OC(C)(C)C
Criterion not met

hey, is growth for this one >= 80%? NC(N)=N/N=C(/c1ccccc1)c1ccccc1F
Criterion not met

Evaluate O=C1/C(=C/c2ccc([N+](=O)[O-])cc2)COc2ccc(O)c(O)c21 : growth at minimum 80%?
Criterion not met

Has N#Cc1c(-c2ccc(C(F)(F)F)cc2)cc(N2CC(O)C2)n2c1nc1ccccc12 a recorded growth greater than or equal to 80%?
Criterion not met

Is reported growth greater than or equal to 80% here: Cc1ccc(NSc2ccccc2[N+](=O)[O-])cc1
Criterion not met

----------
# Tested on: NCI-H226 lung
# experimental-protocol: NCI-60 one-dose screen, 48 h
# condition: 10 µM unless noted
About 83,000 compounds went through this panel and 20% of them were active in at least one assay; those are over-represented in the sample as a whole. Active and inactive are the calls of the source. Rule for the calls: active = growth percent below 10; inactive = the rest.
Hi there, use one of these labels in your reply, thanks! True (active), False (inactive)

Known results for molecules:
molecule	answer-label
CCCCN(Cc1ccc(C(=O)NO)cc1)C(=O)Nc1ccc(OCCCCCCCCCn2cc(CCCCC(=O)N[C@H](C(=O)N3C[C@H](O)C[C@H]3C(=O)NCc3ccc(-c4scnc4C)cc3)C(C)(C)C)nn2)cc1	False
OCCCCc1nccc2c1[nH]c1ccccc12	False
C[C@@H]1C(=O)N(C[C@H](Cc2ccccc2)NC(=O)OCc2ccccc2)[C@]1(Cc1ccccc1)C(=O)OC(C)(C)C	False
Cc1nc(Nc2ccc(N)cc2)c2ccccc2n1	False
CCCc1nc2ccccn2c1Nc1ccc(C(=O)NO)cc1	False
Cc1ccc2c(n1)C(=O)C(Oc1ccc(F)cc1)=CC2=O	False
Cl.Fc1c[c-]c(-c2ccccn2)c(F)c1.[Pt].c1ccc(P(c2ccccc2)C([PH+](c2ccccc2)c2ccccc2)[PH+](c2ccccc2)c2ccccc2)cc1	False
COc1ccc(/C=C(\C#N)n2nnc3cc(F)c(F)cc32)c(OC)c1OC	False

I'd appreciate the recorded outcome for O=C1C(Cl)C(c2ccccc2Cl)N1n1cnnc1 (stereo unspecified) from this test.
False

Short answer needed: outcome of this test for N#Cc1c(N)n2c(nc1=Nc1ccc(Cl)cc1)sc1cc(Cl)ccc12 ?
False

# lookup: test call for CN(CCCCCCCCNc1ccnc2ccccc12)Cc1ccc(-c2ccc(-c3ccc(C#N)cc3)s2)cc1
True

Recorded call for O=S(=O)(Nc1ccsc1-c1nc(-c2ccccc2)no1)c1cc(Cl)cc(Cl)c1 ?
False

// param item: Cc1nc2ccccc2c(/C=C/c2ccc(Cl)cc2)c1C(=O)/C=C/c1ccc(Cl)cc1 ; yields the recorded call
True

# fetch the recorded call for Cc1csc(NC(=O)c2sc3nc(-c4cccs4)ccc3c2N)n1 here
False

// param item: Cn1ccnc1C(=O)/C=C/c1ccc(C(=O)Nc2ccc(S(F)(F)(F)(F)F)cc2)cc1 ; yields the recorded call
False

Which outcome did this test record for the molecule O=C(Nc1cccc2[nH]c(C(F)(F)F)nc12)c1cc(Cl)ccc1Cl ?
False

For COC(=O)Nc1nc2ccc(C(=O)C3CC3)cc2[nH]1 , which call appears in the assay record?
False

Per the assay record, what outcome was assigned to Oc1ccccc1-c1nc2ccccn2c1NCCN1CCOCC1 ?
False

Query: recorded result category for NC(N)=N/N=C/CO in this test
False

Could you check what this test reported for CCOC(=O)c1c2c(c(C)n1C)-c1nn(Cc3ccc(OC)cc3)cc1CC2 ?
False

For CC(=O)Nc1ccc2c(c1)Cc1c(F)cccc1-2 , which call appears in the assay record?
False

Check the results log: what was the call for N=C(N)c1ccc(-c2ccc(-c3ccc(Cl)c(Cl)c3)o2)cc1 ?
False

Query: recorded result category for Fc1ccc(Nc2nc3nonc3nc2Nc2ccc(F)cc2)cc1 in this test
False

Status in this test for COc1ccc(N=c2nc3sc4cc(Cl)ccc4n3c(N)c2C#N)cc1 ?
False

Dear all, I need the recorded test outcome for COc1cc2c(cc1OC)-c1ccc3cc4c(cc3c1N(CCCN1CCCCC1)C2)OCO4 , thank you.
False
